Value source: patent US20260258115A1

# Neutralization IC50 (RSV subtype A) per record follows
- assayedSystem: RSV fusion glycoprotein (RSV F) on RSV-A2 virus (respiratory syncytial virus, UniProt P03420 26-574)
- experimentalDetails: cell-based or functional assay

Below, each entry is followed by its recorded Neutralization IC50 (RSV subtype A) result.
| binder | Neutralization IC50 (RSV subtype A) |
| --- | --- |
| ADI-41425 (antibody, V domains shown, IgG1) VH: EVQLLESGPAVVKPTQTLTLTCTVSGLSLSSPRMSVSWIRQPPGKGLEWLARIDWDGDKYYGTSLKTRLSISKDTSKNQVVLTMTNMDPVDTGTYYCAQTSIYASNAYYLARLDPWGQGMLVTVSS VL: EIVMTQSPSLLSASVGDRVTITCRASQNIATYLNWYQQKPGKAPRLLIYAASNLQSGVPSGFSGSGSGTVFTLTISSLQPEDFATYFCQQSYETSLTFGGGTKVEIK | > 25 µg/mL |
| ADI-41432 (antibody, V domains shown, IgG1) VH: QVQLVQSGAEVKKPGYSVKVSCKASGGTFSTFGISWVRQAPGLGLEWMGGIIPLFGTADYSKKYQGRVTITADESTSTGYMELNSLTPEDTAVYYCARSPGHLWSRYDAFEVWGQGTTVTVSS VL: QPVLTQPRSVSGSPGQSVTISCSGTSSDVGGYNYVSWYQQYPGKAPKLIIYDVNKRPSGVPDRFSGSKSDNTASLTISGLQADDESDYFCCSYAGSHTFEVFGTGTKVTVL | > 25 µg/mL |
| ADI-41363 (antibody, V domains shown) VH: QVQLVQSGAEVKKPGSSVKVSCKASGGTFSSYAITWVRQAPGQGLEWMGGIIPLFGTAKYAQQFQGRVTITADESTSTAYMELSSLRSEDTAVYYCARDGEVCTNGFCWFLDWGLGTLVTVSS VL: DIRVTQSPSSLSASVGDRVTITCQASQDISNYLNWYQQKPGKAPKLLIYDASKLETGVPSRFSGSGSGTDFTFTISSLQPEDIATYYCQNYGNFPHFGGGTKLEIK | 0.143 µg/mL |

Enquiry: What does the data say about its Neutralization IC50 (RSV subtype A)? Entry: ADI-41452 (antibody, V domains shown, IgG1; also called Ab 736) VH: QVQLVQSGAELKKPGASVKVSCKASGHTFATYAIHWVRQAPGQSLEWLGWINTANGDTKYSQKFRATVTIHGDTSANTVYLELSRLRSEDTAVYYCASPPLVGAINLEFWGPGTLVTVSS VL: QSVLTQPASVSGSVGQSITISCTGTSSDVGGYNSVSWYQHHPDKAPKLIIYEVSNRPSGVSHRFSGSKSGNTASLTISGLQAEDEADYYCSSYTTSDTLIFGGGTKVTVL
Return: > 25 µg/mL

Enquiry: What do you get for ADI-41418 (antibody, V domains shown, IgG1) VH: EVQLVESGGGLVKPGGSLRLSCAASGLSFTDAWMGWVRQAPGKGLEWVGHIKKKTDYGPTAYAAPVRGRFTVSRDDSKNTLYLQMTSLKTEDTAVYYCITERGYNFGYNDYFGVDVWGQGTLVTVSS VL: QPGLTQPPSVSVSPGQTARITCSGDALPKKYAYWYQQKSGQAPVMIIYEDNKRPSGIPERFSGSTSGTMATLTISGAQMEDEADYYCFSTDSGDDQSGVFGGGTRLTVL ?
Return: > 25 µg/mL
